Property: % inhibition; scope: individual substances
Test system: human PKK mRNA
METHOD_DESCRIPTION: Antisense inhibition of human PKK mRNA in HepaRG cells, 1,000 nM, MOE/deoxy/cEt oligonucleotides (Example 3)
Assay type: cell-based
SETUP_CONDITIONS: HepaRG cells, electroporation with 1,000 nM antisense oligonucleotide, approximately 24 hours, primer probe set RTS3454, relative to untreated control cells; experiment of Table 24
Strand notation (5' to 3'): a small letter for the sugar, then the base; units joined by * are phosphorothioate-linked, units joined directly phosphodiester-linked; [ ] holds rarer units or linkages, { } end groups; capitals alone tell only the bases. e = 2'-O-(2-methoxyethyl) (MOE); k = constrained ethyl (cEt); [5mC] = 5-methylcytosine; d = 2'-deoxy (DNA)
MEASURED_METRIC: % inhibition (%)

> print(dat)
                                  substance  result.value
1  548046 (eT*eA*kT*d[5mC]*dA*dT*dG*dA*dT*dT*d[5mC]*d[5mC]*d[5mC]*kT*kT*e[5mC]; antisense) [compound 548046]            84
2  548013 (eG*eT*k[5mC]*d[5mC]*d[5mC]*d[5mC]*dA*dG*dT*dG*dT*dT*dA*k[5mC]*kA*e[5mC]; antisense) [compound 548013]            37
3  548030 (e[5mC]*eT*kG*dG*dT*dG*dT*d[5mC]*d[5mC]*dT*dA*dT*dG*kA*kG*eT; antisense) [compound 548030]            52
4  548037 (eA*eA*kT*dG*dT*d[5mC]*dT*dG*dA*d[5mC]*dA*dG*dA*kT*kT*eT; antisense) [compound 548037]            70
5  548026 (eG*eT*k[5mC]*d[5mC]*dT*dA*dT*dG*dA*dG*dT*dG*dA*k[5mC]*k[5mC]*e[5mC]; antisense) [compound 548026]            52
6  548035 (e[5mC]*eA*k[5mC]*dT*dA*dT*dA*dG*dA*dT*dG*d[5mC]*dG*k[5mC]*k[5mC]*eA; antisense) [compound 548035]            44
